The reported measurements were obtained from PubChem BioAssay (NCI).

Test system: MDA-MB-231 breast
measurement_protocol: NCI-60 one-dose screen, 48 h (100 = growth as untreated, 0 = no growth, -100 = all killed)
reported_conditions: 10 µM unless noted
Compounds without any hit were thinned out: in the full panel of roughly 83,000, 20% have a hit.
Kindly supply the reported growth values for the records listed here.
Give bare numbers, in %.

Here is how some molecules turned out for growth.
{"molecule": "C#CCN1C(=O)c2ccccc2N(CC#C)C12CCN(Cc1cn(CC(=O)Nc3ccccc3C(N)=O)nn1)CC2", "growth / %": 89.9}
{"molecule": "C/C(=N\\NC(=O)c1ccncc1)c1ccc(N)cc1", "growth / %": 98.4}
{"molecule": "N#C/C(=C/c1ccc(O)c([N+](=O)[O-])c1)c1nc(-c2ccc([N+](=O)[O-])cc2)cs1", "growth / %": 39.5}
{"molecule": "CC[C@]12C=CCN3CC[C@@]4(c5ccc(OC)cc5N(C)[C@H]4[C@@](O)(C(=O)OC)[C@@H]1OC(=O)CCC(=O)O[C@H]1CC[C@H]4[C@@H]5CC[C@H]6CC(=O)CC[C@]6(C)[C@H]5CC[C@]14C)[C@@H]32", "growth / %": 34.6}
{"molecule": "O=C1CC23OC4ON=C(Br)C4C2C(O)c2ccccc2N13 (stereo unspecified)", "growth / %": 98.8}
{"molecule": "C=C(C)[C@@H]1CC[C@]2(C(=O)O)CC[C@]3(C)[C@H](CC[C@@H]4[C@@]5(C)C[C@@H](CC#Cc6ccccc6C)C(=O)C(C)(C)[C@@H]5CC[C@]43C)[C@@H]12", "growth / %": 48.2}
{"molecule": "Cc1nc2sc(C(=O)Nc3ccccc3Cl)c(N)c2cc1C(C)O (stereo unspecified)", "growth / %": 80.9}
{"molecule": "C=C1C(=O)O[C@H]2[C@H]1CC/C(COC(=O)Nc1nc3ccccc3[nH]1)=C\\CC[C@@]1(C)O[C@@H]21", "growth / %": 66.1}

// each molecule listed below needs its growth
1. Cc1cnc(SCc2ccc(Cl)cc2)[nH]c1=S
2. O=C(Nc1nccs1)c1noc2ccccc12
3. Nc1c(C(=O)Nc2cccc3ccccc23)sc2nc3c(cc12)CCCCC3
4. O=C(NCc1ccccc1)c1ccc2c(c1)NC(=O)[C@@H]1CCCN21
5. O=C(Nc1nc(-c2ccccc2)cs1)c1cc(-c2ccc(Br)cc2)nc2ccccc12
6. C1=CC2=CC=C3C=CC=C4C(c5nc6c7ccccc7c7ccccc7c6[nH]5)=CC(=C1)C2C34 (stereo unspecified)
7. CCCn1c2cc(OCc3cn(-c4ccc(Cl)cc4)nn3)ccc2c2ccnc(C)c21

101
91.3
49.4
103
57.8
76.8
64.6

====

Tested on: UACC-257 melanoma
measurement_protocol: NCI-60 one-dose screen, 48 h (100 = growth as untreated, 0 = no growth, -100 = all killed)
reported_conditions: 10 µM unless noted
This is part of a sample that, as a whole, favours compounds with a hit. Of some 83,000 tested, about 20% had one in any assay.
value_type: growth (%)
Answers are plain numbers, in %.

Here is how some compounds turned out for growth.
{"compound": "COC(=O)c1nc(-c2ccccc2)oc1S(=O)(=O)n1nc(C)cc1N", "growth, %": 83.3}
{"compound": "C1=CC2=CC=C3C=CC=C4C(c5nc6c7ccccc7c7ccccc7c6[nH]5)=CC(=C1)C2C34 (stereo unspecified)", "growth, %": 105}
{"compound": "COc1ccc(/C=C(/C(=O)N2CCCC2)c2cc(OC)c(OC)c(OC)c2)cc1", "growth, %": 52.4}
{"compound": "COc1ccc(Cc2nc(C#N)c(N3CCN(c4ccc(F)cc4)CC3)o2)cc1", "growth, %": 112}
{"compound": "CCCCc1nc(Cl)c(C2CC(c3ccc(Cl)cc3)=NN2c2cc(Cl)cc(Cl)c2)[nH]1 (stereo unspecified)", "growth, %": 94.8}
{"compound": "CC[C@H](Nc1ncnc2nc[nH]c12)c1nc2cccc(CC(=O)c3ccc(C(=O)NO)cc3)c2c(=O)n1-c1ccccc1", "growth, %": 53.5}
{"compound": "CC1CCN(CCCCCOc2ccc3oc4ccccc4c(=O)c3c2)CC1", "growth, %": 9.5}
{"compound": "CCCCCCCc1n(Cc2ccc3ccccc3c2)c2ccccc2[n+]1Cc1ccc2ccccc2c1", "growth, %": -76.5}
{"compound": "Cc1c(Cl)cccc1NC(=O)c1sc2nc3c(cc2c1N)CN(Cc1ccccc1)CC3", "growth, %": 63.6}
{"compound": "C#C[C@@]1(O)[C@@H](CO)O[C@@H](n2cc(I)c3c(N)ncnc32)[C@@H]1O", "growth, %": 44.7}

// each compound listed below needs its growth
1. COc1cc(N=Nc2cc(S(=O)(=O)O)cc3cc(S(=O)(=O)O)cc(O)c23)c(C)cc1N=Nc1c(S(=O)(=O)O)cc2cc(Nc3ccccc3)ccc2c1O
2. Oc1c(CCl)cc(Cl)cc1Cc1cc(Cl)cc(Cc2cc(Cl)cc(CCl)c2O)c1O
3. CC(C)NS(=O)(=O)c1cccc(-c2ccc3c(=O)n(CCCN)c4c(c3c2)C(=O)c2ccccc2-4)c1
4. OCCNc1nc(NCCO)nc(Nc2ccc(C3=NN(c4cc(Cl)cc(Cl)c4)C(c4ccc(C(F)(F)F)cc4)C3)cc2)n1 (stereo unspecified)
5. O=C(CN1N=C(c2ccc(F)cc2)CCC1=O)Nc1nccs1
6. COC(=O)CCc1cc(O)c2c(c1)[C@@H](C(=O)OC)[C@H](c1ccc(O)c(O)c1)O2

[111, 36.1, 110, 59.4, 92.8, 85.6]

// each compound listed below needs its growth
1. COc1cc2c(cc1OC)C(Sc1ccc(Cl)cc1)c1c(nc(N)c(C#N)c1N)O2 (stereo unspecified)
2. COc1ccc(-c2cn(-c3ccc(Cl)cc3)c(=S)[nH]2)cc1OC
3. C#CCN(CCCOc1ccc(Cl)cc1Cl)CCCSC(=O)CCCCCN1/C(=C\C=C2/CCCC(/C=C/C3=[N+](CCCCCC(=O)[O-])c4ccccc4C3(C)C)=C2Cl)C(C)(C)c2ccccc21
4. COc1cc([C@H](C)c2ccc3ccccc3c2)cc(OC)c1OC
5. CC(C)CSc1nc(Nc2ccccc2)c(C#N)c(-c2ccc(F)cc2)n1
6. CN1CCN(CC#CCOC(=O)CNC(=O)[C@]23CCC(C)(C)C[C@H]2C2=CC[C@@H]4[C@@]5(C)CC[C@H](O)C(C)(C)[C@@H]5CC[C@@]4(C)[C@]2(C)CC3)CC1
7. Cc1ccc(-c2nc(C#N)c(S(=O)(=O)N(C)CCO)o2)cc1
8. C=C1C(=O)O[C@H]2[C@H]1CC/C(COC(=O)CCCCCCCC(=O)OC/C1=C/CC[C@@]3(C)O[C@H]3[C@H]3OC(=O)C(=C)[C@@H]3CC1)=C\CC[C@@]1(C)O[C@@H]21

1. 22.5
2. 65.8
3. 30.8
4. 51.4
5. 66.2
6. 95.1
7. 77.9
8. 58.2

// each compound listed below needs its growth
1. CC(C)Cc1cc(CNC(=O)C2[C@H]3CN(C(=O)c4ccccc4)C[C@@H]23)nn1-c1ccccc1 (stereo partly specified)
2. O=C1CC(c2ccc(O)c(O)c2)Oc2cc(O)c([C@@H]3O[C@H](CO)[C@@H](O)[C@H](O)[C@H]3O)c(O)c21 (stereo partly specified)
3. O=S(=O)(Nc1nccs1)c1ccc(Nc2nc(-c3ccncc3)cs2)cc1
4. COc1cccc(C(=O)OCCn2nc3c4c(cccc42)C(=O)c2ccccc2-3)c1O
5. COCCOCCOCc1n(Cc2ccc3ccccc3n2)c2ccccc2[n+]1Cc1ccc2ccccc2n1
6. NS(=O)(=O)c1ccc(N2Cc3cc(Cl)ccc3OC3=C2C(=O)N(CC2CCCCC2)C3=O)cc1

1. 73.4
2. 106
3. 109
4. 79.4
5. -5.39
6. -79

// each compound listed below needs its growth
1. CCOCCc1c(O)nc(SC)[nH]c1=O
2. COC(=O)c1nc(-c2ccccc2)oc1S(=O)(=O)n1nc(-c2ccccc2)cc1N
3. O=C(Nc1ccc(S(=O)(=O)NC2CCCCCC2)cc1)C(c1ccccc1)S(=O)(=O)c1ccc(F)cc1 (stereo unspecified)
4. CCCCn1c2cc(OCc3cn(-c4ccc(Cl)cc4)nn3)ccc2c2ccnc(C)c21
5. CCO/C=N/S(=O)(=O)c1cc2c(cc1Cl)NC=NS2(=O)=O
6. Nc1c(C(=O)Nc2cccc3ccccc23)sc2nc3c(cc12)COCC3

1. 23.9
2. 52
3. -24.6
4. 33.6
5. 90.2
6. 54.5

====

System: HCT-15 colon
measurement_protocol: NCI-60 one-dose screen, 48 h (100 = growth as untreated, 0 = no growth, -100 = all killed)
reported_conditions: 10 µM unless noted
Compounds without any hit were thinned out: in the full panel of roughly 83,000, 20% have a hit.
Kindly supply the reported growth values for the records listed here.
Numbers only, in %.

Here is how some compounds turned out for growth.
{"structure": "CC(C)C1=C[C@@]23CC[C@H]4[C@](C)(COCCC#N)CCC[C@]4(C)[C@H]2C[C@@H]1[C@@H]1[C@H]3[C@@H](OCCC#N)CC[C@@H]1OCCC#N", "experimental_target": "HCT-15 colon", "growth [%]": 22.8}
{"structure": "COc1ccc(NC(=O)c2sc3nc(C)c(C(C)=O)cc3c2N)cc1", "experimental_target": "HCT-15 colon", "growth [%]": 91.6}
{"structure": "COc1ccc(/C(=N\\O)c2cc(C)c(OC)c(C)c2)cc1O", "experimental_target": "HCT-15 colon", "growth [%]": 16.3}
{"structure": "CCCCc1n(Cc2ccc3ccccc3c2)c2ccccc2[n+]1Cc1ccc2ccccc2c1", "experimental_target": "HCT-15 colon", "growth [%]": -89.2}
{"structure": "C=C(C)[C@@H]1CC[C@]2(C(=O)OCCOCCOCC[P+](c3ccccc3)(c3ccccc3)c3ccccc3)CC[C@]3(C)[C@H](CC[C@@H]4[C@@]5(C)CC[C@H](C)C(C)(C)[C@@H]5CC[C@]43C)[C@@H]12", "experimental_target": "HCT-15 colon", "growth [%]": -86.7}

// each compound listed below needs its growth
1. COCCOCCOCc1n(Cc2ccc3ccccc3c2)c2ccccc2[n+]1Cc1ccc2ccccc2c1
2. C#C[C@@]1(O)[C@@H](CO)O[C@@H](n2cnc3c(-c4ccccc4)ncnc32)[C@@H]1O
3. CCN1CCN(c2ccc(NC(=O)Nc3nc4ccc(-c5ccccc5OC)cc4s3)cc2)CC1

1. 88.4
2. 98
3. -83.2
